The measured values listed here are drawn from patent US20210214461A1.

- assay target: pre-existing anti-scFv903 antibodies in human serum H76 (human)
- test description: competition ADA bridging ELISA
measured property: signal change in competition ELISA (% reduction in OD) (%)

binder: scFv 961 (scFv) scFv: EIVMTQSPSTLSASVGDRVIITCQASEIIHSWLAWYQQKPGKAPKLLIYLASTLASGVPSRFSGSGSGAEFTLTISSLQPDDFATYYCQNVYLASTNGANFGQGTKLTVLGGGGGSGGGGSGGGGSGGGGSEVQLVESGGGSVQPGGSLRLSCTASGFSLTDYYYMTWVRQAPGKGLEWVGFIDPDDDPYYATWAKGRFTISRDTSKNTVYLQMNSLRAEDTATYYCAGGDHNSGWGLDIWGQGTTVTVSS
uom: %
test value: -36
--
binder: scFv105 (scFv) scFv: DIVMTQSPSSLSASVGDRVTLTCTASQSVSNDVVWYQQRPGKAPKLLIYSAFNRYTGVPSRFSGRGYGTDFTLTISSLQPEDVAVYYCQQDYNSPRTFGQGTKLEVKRGGGGSGGGGSGGGGSSGGGSQVQLVQSGAEVKKPGASVKVSCTASGYTFTHYGMNWVRQAPGKGLEWMGWINTYTGEPTYADKFKDRFTFSLETSASTVYMELTSLTSDDTAVYYCARERGDAMDYWGQGTLVTVSS
uom: %
test value: -18
--
binder: scFv 903 (scFv) scFv: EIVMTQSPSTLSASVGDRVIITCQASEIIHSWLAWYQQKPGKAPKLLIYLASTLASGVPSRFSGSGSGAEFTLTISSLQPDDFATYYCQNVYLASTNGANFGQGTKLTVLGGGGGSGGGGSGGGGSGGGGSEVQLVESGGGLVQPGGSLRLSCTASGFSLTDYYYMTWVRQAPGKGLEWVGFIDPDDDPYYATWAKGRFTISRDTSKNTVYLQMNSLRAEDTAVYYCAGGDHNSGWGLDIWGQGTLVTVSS
uom: %
test value: -97
